assay_target: CRBN truncate (318-426) (Homo sapiens (Human), UniProt Q96SW2)
Sequence (Q96SW2 318-426): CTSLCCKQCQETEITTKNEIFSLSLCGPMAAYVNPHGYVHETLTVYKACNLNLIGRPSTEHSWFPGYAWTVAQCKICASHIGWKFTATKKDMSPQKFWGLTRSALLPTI
experiment_notes: Measurement of molecular interactions using surface plasmon resonance (SPR), Biacore T200
conditions_used: 25° C., immobilized CRBN truncate, upper limit of measurement 200 μM
Below, each of the compounds is paired with its reported Kd value.

Use the examples below as a reference point.
compound | Kd
Cc1sc2c(c1C)C(c1ccc(Cl)cc1)=N[C@@H](CC(=O)NCCCCCCCCNC(=O)CCc1ccc(-c3nn(C4CCCC(=O)NC4=O)c(=O)n3C)cc1)c1nnc(C)n1-2 (stereo partly shown) | < 50 µM
CC(C)(C)OC(=O)NCc1cn(C2CCCC(=O)NC2=O)nn1 (stereo not shown) | ≥ 100 µM
O=C1NC(=O)C2(c3ccc(Br)cc3)CCC1CC2 | ≥ 100 µM
CC(C)(C)OC(=O)COc1cccc(C(=O)NC2CCCC(=O)NC2=O)n1 (stereo not shown) | 50 to 100 µM
CC(C)(C)OC(=O)N1CCN(C2CCCC(=O)NC2=O)C(=O)C1 (stereo not shown) | ≥ 100 µM
Cc1cc([N+](=O)[O-])ccc1N1CCC2(CCCC(=O)NC2=O)C1 (stereo not shown) | 50 to 100 µM
Cc1sc2c(c1C)C(c1ccc(Cl)cc1)=N[C@@H](CC(=O)NCCCCCCCCOc1ccc(C#N)c(N3CCC4(CCCC(=O)NC4=O)C3)c1)c1nnc(C)n1-2 (stereo partly shown) | < 50 µM
Cn1c(=O)n(C2CCCC(=O)NC2=O)c2cccc(C#CCCCCCC(=O)OC(C)(C)C)c21 (stereo not shown) | < 50 µM

What is its Kd for CRBN truncate (318-426) (Homo sapiens (Human), UniProt Q96SW2)? Entry: CC(C)(C)OC(=O)c1cccc(C2CCCC(=O)NC2=O)c1 (stereo not shown)
50 to 100 µM

Query CC(C)(C)[Si](C)(C)OC1c2cccc(Br)c2CC1N1CC=CC(=O)NC1=O (stereo not shown) next
≥ 100 µM

Try the compound Cn1nc(N2CCCC(=O)NC2=O)c2ccc(CCC(=O)OC(C)(C)C)cc21
50 to 100 µM

Next entry: Cc1sc2c(c1C)C(c1ccc(Cl)cc1)=N[C@@H](CC(=O)NCCCCCCCNC(=O)COc1cccc(C(=O)NC3CCCC(=O)NC3=O)n1)c1nnc(C)n1-2 (stereo partly shown)
< 50 µM

Now give it for CC(C)(C)OC(=O)c1ccc(N2CCC3(CCCC(=O)NC3=O)CC2=O)cc1 (stereo not shown) too.
< 50 µM

Then O=C1CCCC2(CCN(C(=O)c3ccccc3)C2)C(=O)N1 (stereo not shown) ?
≥ 100 µM

What do we get for O=C1CCOC(c2cccc(Br)c2)C(=O)N1 (stereo not shown) ?
≥ 100 µM

Query COc1ccc2sc(N3CCC4(CCCC(=O)NC4=O)C3)nc2c1 (stereo not shown) next
≥ 100 µM
